# credit: patent US7348025B2

assay: Tissue distribution of CPT after inhalation of CPT liposome aerosol; type: in vivo, Mouse; conditions: mouse, in vivo, 486 ng per mouse, Kidney; mice, after 15 minutes inhalation of CPT liposome aerosol; 4 animals; read-out: MEAN (±SD) CPT in tissue
quantity: concentration at 15 min (ng/g)
# number only, unit ng/g dropped from output

# get_value(readout='concentration at 15 min', item= CC[C@@]1(O)C(=O)OCc2c1cc1n(c2=O)Cc2cc3ccccc3nc2-1 [CPT, 20-S-camptothecin] )
29.8

* * *

experiment: Time dependent organ distribution of CPT after intranasal administration of DLPC liposomes; format: in vivo; conditions: other: intranasal instillation; Spleen, 60 min; mice, intranasal DLPC liposomal CPT 7 μg per mouse; read-out: CPT in tissue
quantity: concentration at 60 min (ng/g)
# number only, unit ng/g dropped from output

# get_value(readout='concentration at 60 min', item= CC[C@@]1(O)C(=O)OCc2c1cc1n(c2=O)Cc2cc3ccccc3nc2-1 )
7

* * *

Experiment: Time dependent organ distribution of CPT after intramuscular administration
Assay type: in vivo
Conditions: mouse, site of injection, 7 µg/mouse, Site of inj., 0 min, mice, i.m. CPT in DMSO/saline suspension, read-out: CPT in tissue
Procedure: The mobile phase was 30% acetonitrile and 70% of 0.1% glacial acetic acid. CPT was detected using the Waters 470 scanning fluorescence detector set to an excitation wavelength of 370 nm and an emission wavelength of 440 nm. […] The data were analyzed with the Waters Millenium software. Drug disappeared very slowly from the site of intramuscular injection in the first 12 hours, with only very small concentrations detected in the liver and virtually no drug present at other sites. […]
quantity: concentration at 0 min
Answer with the figure and its unit, nothing else.

# get_value(readout='concentration at 0 min', item= CC[C@@]1(O)C(=O)OCc2c1cc1n(c2=O)Cc2cc3ccccc3nc2-1 [CPT, 20-S-camptothecin] )
6920 ng/g

* * *

assay: Time dependent organ distribution of CPT after intranasal administration of DLPC liposomes; type: in vivo; details: whole blood, other: intranasal instillation; Blood, 60 min; mice, intranasal DLPC liposomal CPT 7 μg per mouse; read-out: CPT in tissue
quantity: concentration at 60 min (ng/g)
# number only, unit ng/g dropped from output

# get_value(readout='concentration at 60 min', item= CC[C@@]1(O)C(=O)OCc2c1cc1n(c2=O)Cc2cc3ccccc3nc2-1 )
4

* * *

assay: Tissue distribution of CPT after inhalation of CPT liposome aerosol; format: in vivo, Mouse; conditions: mouse, in vivo, 486 ng per mouse, Blood; mice, after 15 minutes inhalation of CPT liposome aerosol; 4 animals; read-out: MEAN (±SD) CPT in tissue
quantity: concentration at 15 min
Answer with the figure and its unit, nothing else.

# get_value(readout='concentration at 15 min', item= CC[C@@]1(O)C(=O)OCc2c1cc1n(c2=O)Cc2cc3ccccc3nc2-1 )
13.9 ng/g

* * *

assay: Time dependent organ distribution of CPT after intramuscular administration; format: in vivo; conditions: mouse, 7 µg/mouse, Lung, 1200 min, mice, i.m. CPT in DMSO/saline suspension, read-out: CPT in tissue
quantity: concentration at 1200 min (ng/g)
# number only, unit ng/g dropped from output

# get_value(readout='concentration at 1200 min', item= CC[C@@]1(O)C(=O)OCc2c1cc1n(c2=O)Cc2cc3ccccc3nc2-1 )
4
